# Test system: U2-OS cells stably expressing HaloTag-NLS
# procedureSummary: pH sensor permeability, pulse and chase with HaloTag Oregon Green (Example 12)
# assaySetup: 2 uM pulse for 10 minutes

structureNotation	cell permeability
O=C(NCCOCCOCCOCCOCCOCCOCCCCCCCl)c1ccc(C(=O)[O-])c(-c2c3ccc(=[N+]4CCN(CCCCS(=O)(=O)O)CC4)cc-3oc3cc(N4CCN(CCCCS(=O)(=O)O)CC4)ccc23)c1	non-permeability
O=C(NCCOCCOCCCCCCCl)c1ccc(CNC(=O)c2ccc(C(=O)[O-])c(-c3c4ccc(=[N+]5CCN(CCCCS(=O)(=O)O)CC5)cc-4oc4cc(N5CCN(CCCCS(=O)(=O)O)CC5)ccc34)c2)cc1	non-permeability
O=C(NCCOCCOCCCCCCCl)c1cccc(CNC(=O)c2ccc(C(=O)[O-])c(-c3c4ccc(=[N+]5CCN(CCCCS(=O)(=O)O)CC5)cc-4oc4cc(N5CCN(CCCCS(=O)(=O)O)CC5)ccc34)c2)c1	non-permeability
O=C(CCOCCOCCOCCOCCNC(=O)c1ccc(C(=O)[O-])c(-c2c3ccc(=[N+]4CCN(CCCCS(=O)(=O)O)CC4)cc-3oc3cc(N4CCN(CCCCS(=O)(=O)O)CC4)ccc23)c1)NCc1cccc(C(=O)NCCOCCOCCCCCCCl)c1	non-permeability
